# TEST_PROTOCOL: Measurement of Log P values by HPLC on reversed phase columns (EEC directive 79/831 Annex V.A8)
# Type: physicochemical
# APPLIED_CONDITIONS: reversed phase HPLC column, acidic range, 0.1% formic acid in water and acetonitrile
ENDPOINT_LABEL: chromatographic logP

MOLECULE	ENDPOINT_LABEL	RECORDED_NUMBER
Cc1ccc(C[C@H]2CON=C(c3cc(C)nnc3Oc3cccc(Cl)c3F)N2)c(Cl)c1 [compound of formula (I)]	chromatographic logP	3.88

The values you see were collected from patent US20250304566A1.
